- Assay Info: Log P determination
- Assay Conditions: n-octanol/water, Au by FAAS
Measured Property: log P
// no unit, no text: just the number

Q) Entry C[PH](C)(C)[Au][S]C1OC(CO)C(O)C(O)C1O (stereo not shown) [Compound 37] : reported log P = ?
A) −1.63

Q) Another compound to check: C[PH](C)(C)[Au][S]CCO [Compound 40]
A) −0.15

Q) # repeat for CC[PH](CC)(CC)[Au][S]c1ccc(N)cc1 [Compound 17]
A) 1.36

Q) Now consider CC(=O)OCC1O[C@@H]([S][Au-][P+](C)(C)C)C(OC(C)=O)[C@@H](OC(C)=O)[C@@H]1OC(C)=O (stereo partly shown) [Compound 31] and answer again.
A) 0.35

Q) Consider next the compound CC(=O)NC1C([S][Au][PH](C)(C)C)OC(CO)C(O)C1O (stereo not shown) [Compound 39] in the same way.
A) −2.03

Q) // next record CC[PH](CC)(CC)[Au][S][C@@H]1O[C@H](COC(C)=O)[C@@H](OC(C)=O)[C@H](OC(C)=O)[C@H]1OC(C)=O [Compound 1, reference compound]
A) 0.56

Q) Item: CC[P+](CC)(CC)[Au-][S][C@@H]1OC(CO)[C@@H](O)[C@H](O)C1NC(C)=O (stereo partly shown) [Compound 12]
A) −0.89

Q) Can you check CC[PH](CC)(CC)[Au][S]c1ccccc1 [Compound 15] next?
A) 2.20

Q) Try CC[PH](CC)(CC)[Au][S]C1OC(CO)C(O)C(O)C1O (stereo not shown) [Compound 11] next.
A) −0.59
